assay: Passive transcellular permeability of the compound at pH 4 by PAMPA; assay type: ADME; conditions: read-out: permeability
Consider the reported Papp of an entry and match it to a band in lower: < 100 ×10⁻⁶ cm/s; middle: ≥ 100 ×10⁻⁶ cm/s and < 300 ×10⁻⁶ cm/s; upper: ≥ 300 ×10⁻⁶ cm/s

Worked examples follow.
1. COc1cc2[nH]c(C)c(C(C)C)c(=O)c2cc1Cl; middle
2. CCCCC#Cc1c(C)[nH]c2ccccc2c1=O; upper
3. CCCCC#Cc1c(C)[nH]c2cc(OC)c(Cl)cc2c1=O; middle
4. Cc1[nH]c2ccccc2c(=O)c1Br; lower
5. Cc1[nH]c2ccccc2c(=O)c1/C=C/c1cccc([N+](=O)[O-])c1; upper
6. CCCCCCCc1c(C)[nH]c2cc(OC)c(Cl)cc2c1=O; lower

**Q:** Lab note: sort CCCCC#Cc1c(C)[nH]c2ccc(Cl)cc2c1=O into the matching Papp band.
**A:** middle

**Q:** Note: place this compound into its band. Item: Cc1[nH]c2c(Cl)cccc2c(=O)c1-c1ccccc1
**A:** middle

**Q:** Which class holds COc1ccc2c(=O)c(Cc3ccccc3)c(C)[nH]c2c1 ?
**A:** middle

**Q:** Please report the category associated with Cc1[nH]c2ccccc2c(=O)c1-c1ccccc1 , nothing else.
**A:** lower

**Q:** Which class does COc1cc2[nH]c(C)c(-c3ccccc3)c(=O)c2cc1F fall in?
**A:** middle

**Q:** Form field 'band' for Cc1[nH]c2c(Cl)cccc2c(=O)c1Cc1ccccc1
**A:** upper

**Q:** Band assignment needed for COc1c(Cc2ccccc2)c(C)nc2ccc(Cl)cc12 please.
**A:** upper

**Q:** Where would COc1cccc2[nH]c(C)c(-c3ccccc3)c(=O)c12 land among the classes by reported Papp?
**A:** lower

**Q:** # bin lookup: classify COc1cc2[nH]c(C)c(C)c(=O)c2cc1Cl by its Papp
**A:** lower

**Q:** Classify this compound: CCCCC#Cc1c(C)[nH]c2ccc(F)cc2c1=O
**A:** upper

**Q:** In plain terms, what class is Cc1[nH]c2ccccc2c(=O)c1C1CCCCC1 ?
**A:** middle

**Q:** Please let me know in which category the item Cc1c(Cc2ccccc2)c(=O)c2cc(Cl)ccc2n1C belongs.
**A:** upper

**Q:** Note: place this compound into its band. Item: Cc1[nH]c2ccccc2c(=O)c1/C=C/c1ccc(O)cc1
**A:** lower

**Q:** Assign a bin to Cc1[nH]c2cc(Cl)cc(Cl)c2c(=O)c1-c1ccccc1
**A:** upper

**Q:** Would you mind sorting COc1cccc2c(=O)c(-c3ccccc3)c(C)[nH]c12 into the appropriate category?
**A:** lower

###

experiment: Passive transcellular permeability of the compound at pH 4 by PAMPA; format: ADME
readout: permeability (×10⁻⁶ cm/s)
The reply should be a number in ×10⁻⁶ cm/s, with the unit left off.

1) C=C(CCCCCCC)c1c(C)[nH]c2ccccc2c1=O; 1755.67

**Q:** Supply measured permeability of CCCCC#Cc1c(C)[nH]c2ccc(OC)cc2c1=O in your reply.
**A:** 1020.6

**Q:** Provide only the value of recorded permeability for CCCCCCCc1c(C)nc2cc(OC)ccc2c1O
**A:** 1019.9

**Q:** Identify measured permeability associated with CCc1c(C)[nH]c2cc(OC)c(F)cc2c1=O
**A:** 22.9

**Q:** Give me measured permeability, please, for this compound: COc1cc2[nH]c(C)c(C3CCCCC3)c(=O)c2cc1Cl
**A:** 1235.85
